Experiment: Drug concentration in Lewis rat blood assessed as concentration of parent compound at 2 mg/kg, po measured at 4 hrs by LC-MS/MS analysis
Assay type: ADME, organism-based
Settings: Lewis, blood, read-out: Ct
Exercise: for every item that follows, state its recorded concentration at 4 h.
Use nM as the unit, but write only the number.

// concentration at 4 h value for CCOCCCC1CCc2cc([C@H]3CC[C@](N)(CO)C3)ccc2C1 (single isomer, unassigned) : 172

// concentration at 4 h value for COCCCC1CCc2cc([C@H]3CC[C@](N)(CO)C3)ccc2C1 (stereo in doubt; 22a) : 141

// concentration at 4 h value for COCCCCC1CCc2cc([C@H]3CC[C@](N)(CO)C3)ccc2C1 (stereo in doubt; 13a) : 300

// concentration at 4 h value for CCSCCCC1CCc2cc([C@H]3CC[C@](N)(CO)C3)ccc2C1 (single isomer, unassigned) : 190

// concentration at 4 h value for COCCCCCCC1CCc2cc([C@H]3CC[C@](N)(CO)C3)ccc2C1 (stereo in doubt; 25a) : 265

// concentration at 4 h value for CCCOCCOC1CCc2cc([C@H]3CC[C@](N)(CO)C3)ccc2C1 (stereo partly drawn) : 100

// concentration at 4 h value for COCCCCCC1CCc2cc([C@H]3CC[C@](N)(CO)C3)ccc2C1 (single isomer, unassigned; 23) : 129

// concentration at 4 h value for CCCCSCC1CCc2cc([C@H]3CC[C@](N)(CO)C3)ccc2C1 (single isomer, unassigned) : 138
